- experiment: IANBD-channel fluorescence artefacts in buffer – biochemical, artefact control for cardiac RTF calcium sensitizer project, confirmation (AID 504382)
- test context: IANBD fluorescence interference counterscreen, EC20 Ca2+, at 7.2 µM, stronger effect = higher value, scaled: EC20 calcium 0, EC100 calcium 100
About 460 (18%) of roughly 2,500 compounds were called active. Not all results are given here.
endpoint label: fluorescence artifact activation (%)
Number only, in %; omit the unit.

Consider the following illustrative entries.
> print(dat)
                                   molecule  output.unit  test.result
1  CCOC(=O)c1cnc(SC)nc1Oc1cccc(NS(=O)(=O)c2ccc(Cl)cc2)c1            %         0.07
2  N#Cc1c(-c2ccccc2F)cc(C2CC2)nc1SCC(=O)c1cccs1            %         0.28
3  CN(Cc1ccccc1)C(=O)c1cccc(N2C(=O)NC3CC2(C)Oc2ccccc23)c1 (stereo not given)            %         14.2
4  CCN(CC)C1=CC2=CC(=C(C#N)C#N)CCC2CC1 (stereo not given)            %         0.13
5  CN1CC=C2C(C#N)=C(N)C(C#N)(C#N)C(c3ccsc3)C2C1 (stereo not given)            %         0.22
6  Cc1ccc2c(C(=O)CN3CCC(C(N)=O)CC3)c(C)[nH]c2c1            %         9.54

Input line: fluorescence artifact activation for "CCOC(=O)c1c(/N=C/c2cccc([N+](=O)[O-])c2O)sc(C)c1C" ?
Output line: 2.1

Input line: Note, next up: CCOc1cccc2c1OC1(C)CC2NC(=O)N1c1cccc(C(=O)NCc2ccccn2)c1 (stereo not given)
Output line: 0.6

Input line: Note, next up: COc1cccc2c1OC1(C)CC2NC(=O)N1Cc1ccccc1 (stereo not given)
Output line: 1.11

Input line: Note, next up: "COC(=O)CN1C(=S)N(c2ccc(OC)cc2)C(=O)/C1=C/c1ccc(N2CCOCC2)cc1"
Output line: -0.04

###

- experiment: IANBD-channel fluorescence artefacts in buffer – biochemical, artefact control for cardiac RTF calcium sensitizer project, confirmation (AID 504382)
- test context: IANBD fluorescence interference counterscreen, EC20 Ca2+, at 7.2 µM, scaled: EC20 calcium 0, EC100 calcium 100
In all, about 2,500 compounds went through this assay and about 460 (18%) were called active.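 Rule for the calls: active = mean activation above a cutoff of low control average plus 3 SD from the earlier screen (cut at about 12% in these data); inactive = the rest.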 Not all results are given here.
Your reply should match one of these outcome classes. active, inactive

Look over these answered cases.
> print(dat)
                                    compound  answer.label
 1  CCOC(=O)CSc1nc2c(c(=O)n(C)c(=O)n2C)n1Cc1ccccc1F        active
 2  Cc1ccc(S(=O)(=O)N2CC(C(=O)O)=CC[C@H]2c2ccc(Cl)cc2)cc1      inactive
 3  COc1ccc(NC(=O)CC2C(=O)N(Cc3ccco3)C(=S)N2C(C)C)cc1 (stereo not drawn)        active
 4      CCCNS(=O)(=O)c1ccc2c(c1)n(C)c(=O)n2C      inactive
 5    O=C(CSC1=NS(=O)(=O)c2ccccc2N1)N1CCCCC1      inactive
 6             Cc1ccc(C(=O)COC(=O)C2CCC2)cc1      inactive
 7  COc1ccccc1NS(=O)(=O)c1cc([N+](=O)[O-])ccc1N/N=C/c1c(C)[nH]c2ccccc12      inactive
 8  COc1ccc(NC(=O)CS(=O)(=O)c2cccc(Cl)c2)cc1      inactive
 9  O=C(Nc1ccc(F)cc1F)c1ccc(COc2c(F)c(F)cc(F)c2F)o1      inactive
10  Cc1cc(NC(=O)CCC(=O)N(CCC(C)C)C(C(=O)NC2CCCC2)c2cccnc2)no1 (stereo not drawn)      inactive

Input line: Status in this test for "CCn1nnnc1SCC(=O)N1CCCc2ccccc21" ?
Output line: inactive

Input line: Note, next up: "COCCN=c1scc(-c2cc(OC)c(OC)c(OC)c2)n1/N=C/c1c(C)[nH]c2ccccc12"
Output line: active

Input line: Note, next up: "C=CCNc1nc2c(c(=O)[nH]c(=O)n2C)n1CCCc1ccccc1"
Output line: inactive

Input line: Note, next up: O=C(COC(=O)C1CC2C=CC1C2)Nc1cccc(S(=O)(=O)N2CCCCCC2)c1 (stereo not drawn)
Output line: inactive

###

- experiment: IANBD-channel fluorescence artefacts in buffer – biochemical, artefact control for cardiac RTF calcium sensitizer project, confirmation (AID 504382)
- test context: IANBD fluorescence interference counterscreen, EC20 Ca2+, at 7.2 µM, scaled: EC20 calcium 0, EC100 calcium 100
Screen size: about 2,500 compounds; about 460 (18%) were called active.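 The calls were made as follows: active = mean activation above a cutoff of low control average plus 3 SD from the earlier screen (cut at about 12% in these data); inactive = the rest.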 These entries were drawn from the full list.
Your reply should match one of these outcome classes. True for active, False for inactive

> print(dat)
                                   molecule  answer.label
1  C=CCNC(=O)NC(=O)COC(=O)CC(NC(N)=O)c1ccc(Cl)cc1 (stereo not given)          True
2  Cc1ccc(N2C3=C(C(=O)CC(C)(C)C3)C(c3cn(C)nc3C)C3=C2CC(C)(C)CC3=O)cc1         False
3  O=C(COC(=O)c1ccc(S(=O)(=O)N2CCCC2)cc1)NCc1ccco1         False

Input line: Status in this test for "O=C(Nc1nc2c(s1)CN(Cc1ccccc1)CC2)c1cccc(S(=O)(=O)N2CCc3ccccc32)c1" ?
Output line: False

Input line: Note, next up: "Cc1cnc(C(=O)Nc2nnc(SCc3c(Cl)cccc3Cl)s2)cn1"
Output line: False

###

- experiment: IANBD-channel fluorescence artefacts in buffer – biochemical, artefact control for cardiac RTF calcium sensitizer project, confirmation (AID 504382)
- test context: IANBD fluorescence interference counterscreen, EC20 Ca2+, at 7.2 µM, stronger effect = higher value, scaled: EC20 calcium 0, EC100 calcium 100
About 460 (18%) of roughly 2,500 compounds were called active. A selection follows.
The entries below come with measured fluorescence artifact activation values attached.
Number only, in %; omit the unit.

Input line: fluorescence artifact activation for "CC1=Nc2ccccc2/C1=C\c1nc(-c2ccc(F)cc2)oc1O" ?
Output line: 0.71

Input line: Note, next up: "COc1ccc(-n2c(C)cc(/C=C3\SC(=S)N(Cc4ccco4)C3=O)c2C)cc1"
Output line: 91.9

Input line: Note, next up: "CC(=O)N1CCN(S(=O)(=O)c2cccc(C(=O)NNC(=O)c3ccc(Br)cc3)c2)CC1"
Output line: 0.4

Input line: Note, next up: "COc1ccc(-c2csc(N3CCN(c4cc5c(cc4Cl)nc(-c4ccncc4)n5CCOCCO)CC3)n2)cc1"
Output line: -0.09

Input line: Note, next up: Cc1ccccc1C1CC(=O)Oc2cc(O)ccc21 (configuration not stated)
Output line: 0.19

###

- experiment: IANBD-channel fluorescence artefacts in buffer – biochemical, artefact control for cardiac RTF calcium sensitizer project, confirmation (AID 504382)
- test context: IANBD fluorescence interference counterscreen, EC20 Ca2+, at 7.2 µM, scaled: EC20 calcium 0, EC100 calcium 100
About 460 (18%) of roughly 2,500 compounds were called active.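 Rule for the calls: active = mean activation above a cutoff of low control average plus 3 SD from the earlier screen (cut at about 12% in these data); inactive = the rest.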 The list is a sample of the results.
Your reply should match one of these outcome classes. y for active, n for inactive

Look over these answered cases.
> print(dat)
                                   compound  answer.label
1     O=c1ccc2c(-c3ccccc3)c3ccc(O)cc3oc-2c1             y
2  CC(=O)c1cccc(-n2c(CCC(=O)O)ccc2-c2ccccc2)c1             n
3  O=S(=O)([N-]c1nc2ccccc2nc1-[n+]1ccc(-c2ccncc2)cc1)c1ccccc1             n
4  COc1ccccc1N1C(=O)C2C(C(=O)c3ccccc3)=NN(c3ccccc3)C2C1=O (centres undefined)             n

Input line: Status in this test for "CCN(c1ccccc1)S(=O)(=O)c1ccc(OC)c(NC(=O)Cn2cnc3c2c(=O)n(C)c(=O)n3C)c1" ?
Output line: n

Input line: Note, next up: "O=c1[nH]c2ccc(N=Cc3c(O)ccc4cc(Br)ccc34)cc2[nH]1"
Output line: n

Input line: Note, next up: "Cc1ccc(-c2nc(NC(=O)CSc3cc(C)c4ccccc4n3)ns2)cc1"
Output line: n

Input line: Note, next up: "Cc1cc(=O)c2c([nH]1)c(C)cc1[nH]c(C)c(C)c12"
Output line: n

Input line: Note, next up: "N#Cc1c(N)oc(-c2ccccc2)c1-c1ccccc1"
Output line: n

Input line: Note, next up: "N#C/C(=C/c1ccc(N2CCOCC2)o1)C(=O)NC1CCCCC1"
Output line: n

Input line: Note, next up: "CC1CCN(c2ccc3c(c2)S(=O)(=O)c2cccc(C(=O)NC4CCCCC4)c2C3=O)CC1"
Output line: n

Input line: Note, next up: "Cc1ccc[n+](-c2nc3ccccc3nc2[N-]S(=O)(=O)c2ccccc2)c1"
Output line: y

Input line: Note, next up: "COc1ccc(NC(=O)/C(C#N)=C\c2ccc(N3CCOCC3)o2)cc1"
Output line: n

Input line: Note, next up: CC1(C)c2ccccc2N2CC(=O)N(CC(N)=O)C21C (centres undefined)
Output line: y

Input line: Note, next up: CCc1ccc(C(C)NC(=O)c2ncn[nH]2)cc1 (centres undefined)
Output line: n

Input line: Note, next up: "CN(CC(=O)N1CCN(c2ncccn2)CC1)S(=O)(=O)c1ccc(Cl)cc1"
Output line: n

Input line: Note, next up: "Cc1cc(C)c(C#N)c(SCc2nnc(-c3ccccc3)o2)n1"
Output line: y

Input line: Note, next up: "CN1/C(=C\C=C2/SC(=S)N(CC(=O)O)C2=O)C(C)(C)c2ccccc21"
Output line: n

Input line: Note, next up: "C=CCn1cc(/C=C/c2cc[n+](C)cc2)c2ccccc21"
Output line: n

Input line: Note, next up: "Cc1ccc(NC(=O)c2cc(S(=O)(=O)N3CCCCC3)ccc2N2CCOCC2)cc1S(=O)(=O)N(C)C"
Output line: n

Input line: Note, next up: "CCc1nc(Nc2ccc(O)cc2)c2oc3ccccc3c2n1"
Output line: y

Input line: Note, next up: "CCOP(=O)(OCC)/C(=N/OC(=O)c1ccc(OC)cc1)C(N)=O"
Output line: n

Input line: Note, next up: "Cc1c(C)[n+](=O)c(-c2ccc(Br)cc2)c(C)n1[O-]"
Output line: y

Input line: Note, next up: "O=C1c2cccc3c(O)ccc(c23)C(=O)N1Cc1ccccc1"
Output line: y

The reported numbers originate from PubChem BioAssay AID504382.
